tested on: HCMV Strain AD169 in MRC-5 cells; assay: CMV cell assay; format: cell-based; settings: Human betaherpesvirus 5, AD169, MRC5; footnote b: assay described in Example 25; read-out: CMV Cell^b (EC50)
Please use the following EC50 ranges when assigning a class: low = under 0.3 µM, middle = from 0.3 µM up to 4 µM, high = 4 µM and over

These solved cases illustrate the format of a correct answer.
Cn1nc(C(=O)NCc2ccc(Cl)cc2)c2c3c(ccc21)C(N1CCOCC1)CC3 (single isomer, unassigned) [Compound 16]    middle
Cn1nc(C(=O)NCc2ccc(Cl)cc2)c2cnc(N3CCn4nncc4C3)cc21    high
Cn1nc(C(=O)NCc2ccc(Br)cc2)c2cc(CN3CCOCC3)ccc21    high
O=C(NCc1ccc(Cl)cc1)c1n[nH]c2c(Cl)c(N3CCn4nncc4C3)ccc12    low
Cc1c(CN2CCOCC2)cc(C)c2c1c(C(=O)NCc1ccc(Cl)cc1)nn2C    high
N#Cc1c(N2CCn3nncc3C2)ccc2c(C(=O)NCc3ccc(Cl)cc3)n[nH]c12    low
Cn1nc(C(=O)NCc2ccc(Cl)cc2)c2c(F)c(CN3CCOCC3)ccc21    high
Cc1c(CN2CCCS(=O)(=O)CC2)ccc2c1c(C(=O)NCc1ccc(Cl)cc1)nn2C    middle
Cc1c(NCc2cnnn2C)ccc2c(C(=O)NCc3ccc(Cl)cc3)n[nH]c12    middle
Cc1c(CN2CCOCC2)cc2c(C(=O)NCc3ccc(Cl)cc3)nn(C)c2c1C    high

Q. # bin label for Cn1nc(C(=O)NCc2ccc(Cl)cc2)c2c3c(ccc21)C(N1CCOCC1)CC3 (stereo not shown) [Compound 17]
A. middle

Q. Then what about the compound `Cn1nc(C(=O)NCc2ccc(Cl)cc2)c2cc(C[C@H]3CCC(=O)N3)ccc21` ?
A. middle

Q. Then what about the compound `Cn1nc(C(=O)NCc2ccc(Cl)cc2)c2cc(C[C@H]3COC(=O)N3)ccc21` ?
A. low
